target-of-assay: Nav1.6 channel (Homo sapiens (Human))
procedure-details: Nav1.6 inhibition, IonWorks Quattro electrophysiology
Format: cell-based
details: 5 μM; normalized to vehicle (0%) and maximal inhibition control (100%)

- compound-smiles: "CCNC(=O)[C@@H]1CN(Cc2cnc(Oc3ccccc3Cl)cn2)CCO1"
  target-of-assay: "Nav1.6 channel (Homo sapiens (Human))"
  unit-of-measurement: "%"
  inhibition at 5 µM: -6.6
- compound-smiles: "CNC(=O)[C@@H]1CN(Cc2cnc(Oc3ccc(F)cc3C)cn2)CCO1"
  target-of-assay: "Nav1.6 channel (Homo sapiens (Human))"
  unit-of-measurement: "%"
  inhibition at 5 µM: 1.1
- compound-smiles: "CNC(=O)[C@@H]1CN(Cc2cnc(Oc3ccc(Cl)cc3)cn2)CCO1"
  target-of-assay: "Nav1.6 channel (Homo sapiens (Human))"
  unit-of-measurement: "%"
  inhibition at 5 µM: -15
- compound-smiles: "CNC(=O)[C@@H]1CN(Cc2cnc(Oc3ccccc3Cl)cn2)CCO1"
  target-of-assay: "Nav1.6 channel (Homo sapiens (Human))"
  unit-of-measurement: "%"
  inhibition at 5 µM: -10

---

target-of-assay: human MDR1 (P-gp) (Homo sapiens (Human))
Sequence (P08183 whole entry): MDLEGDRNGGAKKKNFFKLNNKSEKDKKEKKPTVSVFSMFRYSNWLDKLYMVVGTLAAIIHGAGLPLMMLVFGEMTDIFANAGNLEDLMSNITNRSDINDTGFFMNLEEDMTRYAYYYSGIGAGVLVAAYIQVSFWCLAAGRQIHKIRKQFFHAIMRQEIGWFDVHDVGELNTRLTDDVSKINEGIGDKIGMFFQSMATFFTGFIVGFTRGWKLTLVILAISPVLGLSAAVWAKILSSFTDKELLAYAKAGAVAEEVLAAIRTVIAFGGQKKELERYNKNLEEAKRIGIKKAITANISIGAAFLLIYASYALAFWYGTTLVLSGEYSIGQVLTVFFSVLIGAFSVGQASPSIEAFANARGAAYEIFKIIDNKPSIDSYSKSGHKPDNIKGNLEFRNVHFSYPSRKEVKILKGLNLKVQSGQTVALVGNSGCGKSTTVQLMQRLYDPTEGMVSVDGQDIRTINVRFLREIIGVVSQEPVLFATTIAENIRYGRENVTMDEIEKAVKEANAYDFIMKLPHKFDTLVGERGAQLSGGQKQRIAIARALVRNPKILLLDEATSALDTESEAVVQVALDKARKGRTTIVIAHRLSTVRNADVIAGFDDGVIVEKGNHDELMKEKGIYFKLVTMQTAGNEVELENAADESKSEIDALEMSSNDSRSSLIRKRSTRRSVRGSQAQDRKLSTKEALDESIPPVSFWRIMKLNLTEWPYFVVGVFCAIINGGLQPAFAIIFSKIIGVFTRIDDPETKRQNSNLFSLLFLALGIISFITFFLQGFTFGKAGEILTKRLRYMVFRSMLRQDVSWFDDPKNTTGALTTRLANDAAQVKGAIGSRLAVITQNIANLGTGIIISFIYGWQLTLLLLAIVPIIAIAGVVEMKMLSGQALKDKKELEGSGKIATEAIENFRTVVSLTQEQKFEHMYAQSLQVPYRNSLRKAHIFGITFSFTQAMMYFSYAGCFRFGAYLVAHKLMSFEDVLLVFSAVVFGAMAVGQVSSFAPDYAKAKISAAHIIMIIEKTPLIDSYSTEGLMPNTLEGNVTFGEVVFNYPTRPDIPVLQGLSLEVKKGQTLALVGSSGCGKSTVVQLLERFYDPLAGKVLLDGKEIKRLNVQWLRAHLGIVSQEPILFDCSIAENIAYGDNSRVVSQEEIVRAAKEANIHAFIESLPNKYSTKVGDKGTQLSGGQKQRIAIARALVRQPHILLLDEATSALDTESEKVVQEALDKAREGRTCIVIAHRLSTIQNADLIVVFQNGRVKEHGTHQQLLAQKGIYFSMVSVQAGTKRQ
procedure-details: MDCK assay P-gp: permeability across MDCK-MDR1 monolayers
Type: in vitro ADME
details: MDCK-MDR1, apical-to-basal, pH 7.4

- compound-smiles: "CNC(=O)[C@@H]1CN(Cc2cnc(Oc3ccc(C)cc3C)cn2)CCO1"
  unit-of-measurement: "×10⁻⁶ cm/s"
  Papp A→B at 2 h: 61
- compound-smiles: "CCNC(=O)[C@@H]1CN(Cc2cnc(Oc3ccccc3Cl)cn2)CCO1"
  unit-of-measurement: "×10⁻⁶ cm/s"
  Papp A→B at 2 h: 59
- compound-smiles: "CCNC(=O)[C@@H]1CN(Cc2cnc(Oc3ccc(F)cc3F)cn2)CCO1"
  unit-of-measurement: "×10⁻⁶ cm/s"
  Papp A→B at 2 h: 81
- compound-smiles: "CNC(=O)[C@@H]1CN(Cc2cnc(Oc3ccc(Cl)cc3)cn2)CCO1"
  unit-of-measurement: "×10⁻⁶ cm/s"
  Papp A→B at 2 h: 66

---

target-of-assay: Nav1.6 channel (Homo sapiens (Human), UniProt Q9UQD0)
Sequence (Q9UQD0 whole entry): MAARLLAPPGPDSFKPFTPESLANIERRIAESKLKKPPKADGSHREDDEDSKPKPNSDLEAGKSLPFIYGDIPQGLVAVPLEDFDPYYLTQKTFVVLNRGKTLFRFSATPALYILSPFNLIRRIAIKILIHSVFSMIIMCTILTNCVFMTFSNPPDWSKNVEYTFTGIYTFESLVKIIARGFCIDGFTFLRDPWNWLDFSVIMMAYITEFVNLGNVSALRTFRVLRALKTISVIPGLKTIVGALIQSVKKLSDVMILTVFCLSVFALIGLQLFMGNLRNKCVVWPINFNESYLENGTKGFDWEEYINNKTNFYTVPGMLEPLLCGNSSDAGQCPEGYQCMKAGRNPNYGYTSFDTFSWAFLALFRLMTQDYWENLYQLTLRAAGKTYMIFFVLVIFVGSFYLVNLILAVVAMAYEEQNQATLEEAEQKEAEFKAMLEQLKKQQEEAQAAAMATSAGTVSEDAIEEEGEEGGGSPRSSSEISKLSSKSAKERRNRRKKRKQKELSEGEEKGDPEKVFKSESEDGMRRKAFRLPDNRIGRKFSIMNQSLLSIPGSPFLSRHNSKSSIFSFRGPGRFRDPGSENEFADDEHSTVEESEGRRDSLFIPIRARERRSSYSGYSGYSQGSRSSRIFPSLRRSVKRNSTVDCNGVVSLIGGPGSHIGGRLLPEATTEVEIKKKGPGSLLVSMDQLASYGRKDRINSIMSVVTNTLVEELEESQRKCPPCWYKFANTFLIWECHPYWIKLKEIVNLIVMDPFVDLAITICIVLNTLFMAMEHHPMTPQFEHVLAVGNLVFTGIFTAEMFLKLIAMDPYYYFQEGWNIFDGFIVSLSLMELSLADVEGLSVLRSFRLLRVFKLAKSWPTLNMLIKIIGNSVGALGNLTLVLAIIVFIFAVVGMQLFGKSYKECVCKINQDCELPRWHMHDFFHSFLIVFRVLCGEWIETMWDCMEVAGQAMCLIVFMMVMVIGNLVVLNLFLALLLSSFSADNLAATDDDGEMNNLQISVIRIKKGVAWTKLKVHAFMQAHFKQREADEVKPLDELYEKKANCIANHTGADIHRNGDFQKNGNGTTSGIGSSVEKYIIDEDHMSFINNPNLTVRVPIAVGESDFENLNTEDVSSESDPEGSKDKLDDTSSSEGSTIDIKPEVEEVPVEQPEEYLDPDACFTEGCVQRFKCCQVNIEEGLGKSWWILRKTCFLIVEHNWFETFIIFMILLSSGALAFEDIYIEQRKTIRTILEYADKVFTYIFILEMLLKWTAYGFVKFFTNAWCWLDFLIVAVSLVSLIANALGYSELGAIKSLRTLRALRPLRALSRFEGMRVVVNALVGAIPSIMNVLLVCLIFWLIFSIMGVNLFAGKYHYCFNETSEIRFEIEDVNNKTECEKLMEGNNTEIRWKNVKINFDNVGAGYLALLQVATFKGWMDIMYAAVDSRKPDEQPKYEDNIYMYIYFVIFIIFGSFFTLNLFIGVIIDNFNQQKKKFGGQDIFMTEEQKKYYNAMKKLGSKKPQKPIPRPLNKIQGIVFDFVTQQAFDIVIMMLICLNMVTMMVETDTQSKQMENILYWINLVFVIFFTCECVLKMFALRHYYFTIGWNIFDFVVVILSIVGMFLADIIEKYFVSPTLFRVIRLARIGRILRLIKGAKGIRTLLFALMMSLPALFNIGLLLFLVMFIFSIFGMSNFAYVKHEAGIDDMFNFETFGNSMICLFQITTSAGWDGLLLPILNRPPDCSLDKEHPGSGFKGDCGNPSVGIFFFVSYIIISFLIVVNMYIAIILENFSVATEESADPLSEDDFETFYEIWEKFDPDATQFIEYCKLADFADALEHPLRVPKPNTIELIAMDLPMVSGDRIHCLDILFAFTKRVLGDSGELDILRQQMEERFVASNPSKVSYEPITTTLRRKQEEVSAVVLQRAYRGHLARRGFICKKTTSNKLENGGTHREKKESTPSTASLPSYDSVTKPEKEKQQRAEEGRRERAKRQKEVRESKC
procedure-details: Nav1.6 inhibition, IonWorks Quattro electrophysiology
Assay type: cell-based
details: 1 μM; normalized to vehicle (0%) and maximal inhibition control (100%)

- compound: "CNC(=O)[C@@H]1CN(Cc2cnc(Oc3ccccc3F)cn2)CCO1 [Example 9]"
  target-of-assay: "Nav1.6 channel (Homo sapiens (Human), UniProt Q9UQD0)"
  inhibition at 1 µM: "0%"
- compound: "CNC(=O)[C@@H]1CN(Cc2cnc(Oc3ccc(C)cc3C)cn2)CCO1 [Example 4]"
  target-of-assay: "Nav1.6 channel (Homo sapiens (Human), UniProt Q9UQD0)"
  inhibition at 1 µM: "3.4%"
- compound: "CCNC(=O)[C@@H]1CN(Cc2cnc(Oc3ccc(F)cc3F)cn2)CCO1 [Example 30]"
  target-of-assay: "Nav1.6 channel (Homo sapiens (Human), UniProt Q9UQD0)"
  inhibition at 1 µM: "-13.4%"
- compound: "CNC(=O)[C@@H]1CN(Cc2cnc(Oc3ccc(F)cc3F)cn2)CCO1 [Example 6]"
  target-of-assay: "Nav1.6 channel (Homo sapiens (Human), UniProt Q9UQD0)"
  inhibition at 1 µM: "5.6%"
- compound: "CNC(=O)[C@@H]1CN(Cc2cnc(Oc3ccc(C)cc3F)cn2)CCO1 [Example 2]"
  target-of-assay: "Nav1.6 channel (Homo sapiens (Human), UniProt Q9UQD0)"
  inhibition at 1 µM: "-4.4%"
